study-target: ER in T47D cells (Homo sapiens (Human))
Sequence (P03372 whole entry): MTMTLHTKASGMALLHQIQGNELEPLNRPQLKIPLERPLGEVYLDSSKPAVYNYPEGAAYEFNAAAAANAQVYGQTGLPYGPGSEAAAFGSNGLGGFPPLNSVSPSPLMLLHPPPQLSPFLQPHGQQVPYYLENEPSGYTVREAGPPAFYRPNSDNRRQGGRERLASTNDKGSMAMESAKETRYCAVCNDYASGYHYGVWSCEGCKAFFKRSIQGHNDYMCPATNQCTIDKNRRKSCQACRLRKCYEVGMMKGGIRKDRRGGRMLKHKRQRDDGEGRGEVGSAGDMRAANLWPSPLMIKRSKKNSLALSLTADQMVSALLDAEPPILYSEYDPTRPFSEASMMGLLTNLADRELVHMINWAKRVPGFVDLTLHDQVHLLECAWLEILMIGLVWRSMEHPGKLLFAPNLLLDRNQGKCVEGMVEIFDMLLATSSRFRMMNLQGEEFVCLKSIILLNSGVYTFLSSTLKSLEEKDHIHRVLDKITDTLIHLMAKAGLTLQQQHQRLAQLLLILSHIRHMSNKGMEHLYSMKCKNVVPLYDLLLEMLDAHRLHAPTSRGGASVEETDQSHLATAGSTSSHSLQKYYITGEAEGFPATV
experimental-details: In-cell Western (ICW) ER degradation assay in T47D cells
Type: cell-based
applied-conditions: maximal ER degradation, 16 hrs treatment, read-out: T47D Dmax
The reader will find reported Dmax values listed item by item below.
metric-name: Dmax

compound	metric-name	reported
O=C1CC[C@H](N2Cc3c(ccc4c3OC[C@H]3CN(CC5CC6(CCN(c7ccc([C@H]8c9ccc(O)cc9CC[C@H]8c8ccccc8)cc7F)CC6)C5)CCN43)C2=O)C(=O)N1 (single isomer, unassigned)	Dmax	> 75%
COc1cc(N2CCC3(CC2)CC(CN2CCN4c5ccc6c(c5OC[C@H]4C2)CN([C@H]2CCC(=O)NC2=O)C6=O)C3)ccc1[C@H]1c2ccc(O)cc2CC[C@H]1c1ccccc1 (single isomer, unassigned)	Dmax	50 to 75%
COc1cc(N2CC3(CC(CN4CCN5c6ccc7c(c6OC[C@H]5C4)CN([C@H]4CCC(=O)NC4=O)C7=O)CO3)C2)ccc1[C@H]1c2ccc(O)cc2CC[C@H]1c1ccccc1 (single isomer, unassigned)	Dmax	25 to 50%
O=C1CC[C@H](N2Cc3cc4c(cc3C2=O)OC[C@H]2CN(C[C@@H]3COC5(CCN(c6ccc([C@H]7c8ccc(O)cc8CC[C@H]7c7ccccc7)cc6)CC5)C3)CCN42)C(=O)N1	Dmax	50 to 75%
O=C1CC[C@H](N2Cc3c(ccc4c3OC[C@H]3CN(CC5CCC6(CC5)CN(c5ccc([C@@H]7c8ccc(O)cc8CC[C@@H]7c7ccccc7)cn5)C6)CCN43)C2=O)C(=O)N1 (single isomer, unassigned)	Dmax	> 75%
COc1cc(N2CCC(CN3CCN4c5cc6c(cc5OC[C@@H]4C3)C(=O)N([C@H]3CCC(=O)NC3=O)C6)CC2)ccc1[C@H]1c2ccc(O)cc2CC[C@H]1c1ccccc1 (single isomer, unassigned)	Dmax	50 to 75%
COc1cc(N2CCC3(CC2)CC(CN2CCC(c4ccc(N[C@@H]5CCC(=O)NC5=O)cc4)CC2)C3)c(F)cc1[C@H]1c2ccc(O)cc2CC[C@H]1c1ccccc1 (single isomer, unassigned)	Dmax	25 to 50%
O=C1CC[C@@H](Nc2ccc(C3CCN(C[C@@H]4COC5(CCN(c6ccc([C@H]7c8ccc(O)cc8CC[C@H]7c7ccccc7)cc6)CC5)C4)CC3)c(F)c2)C(=O)N1 (single isomer, unassigned)	Dmax	< 25%
O=C1CCC(NC(=O)c2ccc3c(n2)OC[C@H]2CN(CC4CCN(c5ccc([C@H]6c7ccc(O)cc7CC[C@H]6c6ccccc6)cc5)CC4)CCN32)C(=O)N1 (stereo in doubt)	Dmax	50 to 75%
COc1cc(N2CCC(CN3CCN4c5ccc6c(c5OC[C@@H]4C3)CN([C@@H]3CCC(=O)NC3=O)C6=O)CC2)ccc1[C@@H]1c2ccc(O)cc2CC[C@@H]1c1ccccc1 (stereo in doubt)	Dmax	50 to 75%
